- STATED CONDITIONS: siRNA; also: test system not given here
HELM strings list units from the 5' end as sugar, base in round brackets, then linkage (d deoxyribose, r ribose, m 2'-O-methyl, p phosphodiester). Strings are as the collection lists them, not checked against the first reports. ss, as = sense and antisense strand; [s4r] = 4'-thioribose; [fl2r] = 2'-fluoro
# note: boundary value 80% maps to rule not met; target mRNA knockdown below it maps to rule met

Known results for substances:
- RNA1{r(A)p.r(G)p.r(A)p.r(G)p.r(A)p.r(G)p.r(G)p.[fl2r](U)p.r(G)p.r(G)p.r(A)p.r(G)p.r(G)p.r(U)p.r(A)p.r(U)p.r(C)p.r(U)p.r(C)p.r(T)p.r(T)}|RNA2{r(G)p.r(A)p.r(G)p.r(A)p.[fl2r](U)p.r(A)p.r(C)p.r(C)p.r(U)p.r(C)p.r(C)p.r(A)p.r(C)p.r(C)p.r(U)p.r(C)p.r(U)p.r(C)p.r(U)p.r(T)p.r(T)}$$$RNA1{StrandType:ss}|RNA2{StrandType:as}$: rule not met
- RNA1{m(A)p.r(U)p.m(C)p.r(C)p.m(U)p.r(G)p.m(C)p.r(A)p.m(G)p.r(A)p.m(A)p.r(G)p.m(A)p.r(A)p.m(G)p.r(C)p.m(C)p.r(U)p.m(C)p.r(T)p.r(T)}|RNA2{r(G)p.r(A)p.r(G)p.r(G)p.m(C)p.r(U)p.r(U)p.m(C)p.r(U)p.r(U)p.m(C)p.r(U)p.r(G)p.m(C)p.r(A)p.r(G)p.r(G)p.r(A)p.r(U)p.r(T)p.r(T)}$$$RNA1{StrandType:ss}|RNA2{StrandType:as}$: rule met
- RNA1{r(A)p.r(A)p.r(A)p.r(C)p.r(G)p.r(A)p.r(G)p.r(A)p.r(G)p.r(A)p.r(G)p.r(C)p.r(C)p.r(C)p.r(A)p.r(C)p.r(C)p.r(U)p.r(U)p.r(T)p.r(T)}|RNA2{r(A)p.r(A)p.r(G)p.r(G)p.m(U)p.r(G)p.r(G)p.r(G)p.r(C)p.r(U)p.r(C)p.r(U)p.r(C)p.r(U)p.r(C)p.r(G)p.r(U)p.r(U)p.r(U)p.r(T)p.r(T)}$$$RNA1{StrandType:ss}|RNA2{StrandType:as}$: rule met
- RNA1{r(A)p.r(U)p.r(C)p.r(G)p.r(U)p.r(C)p.r(G)p.r(U)p.m(C)p.r(A)p.r(G)p.r(G)p.r(G)p.m(U)p.r(A)p.r(A)p.r(G)p.r(G)p.r(U)p.r(T)p.r(T)}|RNA2{r(A)p.r(C)p.r(C)p.r(U)p.m(U)p.r(A)p.r(C)p.r(C)p.r(C)p.m(U)p.r(G)p.r(A)p.r(C)p.r(G)p.r(A)p.r(C)p.r(G)p.r(A)p.r(U)p.r(T)p.r(T)}$$$RNA1{StrandType:ss}|RNA2{StrandType:as}$: rule met

Consider `RNA1{r(G)p.r(U)p.r(A)p.r(U)p.r(U)p.r(G)p.r(A)p.r(C)p.r(A)p.r(G)p.r(C)p.r(U)p.r(A)p.r(U)p.r(U)p.r(C)p.r(G)p.r(A)p.r(A)p.d(T)p.d(T)}|RNA2{r(U)p.r(U)p.r(C)p.r(G)p.r(A)p.r(A)p.r(U)p.r(A)p.r(G)p.r(C)p.r(U)p.r(G)p.r(U)p.r(C)p.r(A)p.r(A)p.r(U)p.r(A)p.r(C)p.d(T)p.d(T)}$$$RNA1{StrandType:ss}|RNA2{StrandType:as}$` . Does its target mRNA knockdown lie strictly below 80%? rule met

Lab note: confirm whether the reported target mRNA knockdown for this substance is below 80%, equality not counting. substance: `RNA1{r(C)p.r(G)p.r(U)p.r(A)p.r(C)p.r(G)p.r(C)p.r(G)p.r(G)p.r(A)p.r(A)p.r(U)p.r(A)p.r(C)p.r(U)p.r(U)p.r(C)p.r(G)p.r(A)p.r(T)p.r(T)}|RNA2{[s4r](U)p.[s4r](C)p.r(G)p.r(A)p.r(A)p.r(G)p.r(U)p.r(A)p.r(U)p.r(U)p.r(C)p.r(C)p.r(G)p.r(C)p.r(G)p.r(U)p.r(A)p.r(C)p.r(G)p.r(T)p.r(T)}$$$RNA1{StrandType:ss}|RNA2{StrandType:as}$` rule not met

Determine whether this substance shows target mRNA knockdown lower than 80% (ties excluded): `RNA1{[s4r](A)p.[s4r](A)p.[s4r](A)p.[s4r](C)p.r(A)p.r(U)p.r(G)p.r(C)p.r(A)p.r(G)p.r(A)p.r(A)p.r(A)p.r(A)p.r(U)p.[s4r](G)p.[s4r](C)p.[s4r](U)p.[s4r](G)p.r(T)p.r(T)}|RNA2{r(C)p.r(A)p.r(G)p.r(C)p.r(A)p.r(U)p.r(U)p.r(U)p.r(U)p.r(C)p.r(U)p.r(G)p.r(C)p.r(A)p.r(U)p.[s4r](G)p.[s4r](U)p.[s4r](U)p.[s4r](U)p.r(T)p.r(T)}$$$RNA1{StrandType:ss}|RNA2{StrandType:as}$` rule not met

* * *

- STATED CONDITIONS: siRNA
HELM strings list units from the 5' end as sugar, base in round brackets, then linkage (d deoxyribose, r ribose, m 2'-O-methyl, p phosphodiester). Strings are as the collection lists them, not checked against the first reports. ss, as = sense and antisense strand
METRIC NAME: target mRNA knockdown (%)
The answer is to be given in %; state only the numeric part.

Give the reported target mRNA knockdown for this substance. `RNA1{r(C)p.r(C)p.r(G)p.r(A)p.r(G)p.r(A)p.r(G)p.r(C)p.r(U)p.r(C)p.r(U)p.r(C)p.r(C)p.m(U)p.r(A)p.r(C)p.r(C)p.r(U)p.r(U)p.r(T)p.r(T)}|RNA2{r(A)p.r(A)p.r(G)p.r(G)p.m(U)p.r(A)p.r(G)p.r(G)p.r(A)p.r(G)p.r(A)p.r(G)p.r(C)p.r(U)p.r(C)p.r(U)p.r(C)p.r(G)p.r(G)p.r(T)p.r(T)}$$$RNA1{StrandType:ss}|RNA2{StrandType:as}$` 75

Quote target mRNA knockdown reported for `RNA1{m(G)p.r(G)p.m(A)p.r(A)p.m(G)p.r(U)p.m(A)p.r(A)p.m(G)p.r(G)p.m(A)p.r(C)p.m(C)p.r(A)p.m(G)p.r(A)p.m(G)p.r(A)p.m(C)p.r(T)p.r(T)}|RNA2{m(G)p.r(U)p.r(C)p.r(U)p.r(C)p.r(U)p.m(G)p.m(G)p.r(U)p.r(C)p.r(C)p.r(U)p.r(U)p.r(A)p.r(C)p.r(U)p.r(U)p.r(C)p.r(C)p.r(T)p.r(T)}$$$RNA1{StrandType:ss}|RNA2{StrandType:as}$` please. 23

* * *

- STATED CONDITIONS: siRNA
HELM strings list units from the 5' end as sugar, base in round brackets, then linkage (d deoxyribose, r ribose, m 2'-O-methyl, p phosphodiester). Strings are as the collection lists them, not checked against the first reports. ss, as = sense and antisense strand; [lna] = locked nucleic acid (LNA); [s4r] = 4'-thioribose
target mRNA knockdown for assorted substances
// units = %; emit number, no label

// known answers, use as guide
- RNA1{r(G)p.r(A)p.r(C)p.r(G)p.r(U)p.r(A)p.r(A)p.r(A)p.r(C)p.r(G)p.r(G)p.r(C)p.r(C)p.r(A)p.r(C)p.r(A)p.r(A)p.r(G)p.r(U)p.r(U)p.r(C)}|RNA2{r(A)p.r(C)p.[lna](T)p.r(U)p.r(G)p.[lna](T)p.r(G)p.r(G)p.r(C)p.r(C)p.r(G)p.r(U)p.r(U)p.[lna](T)p.r(A)p.r(C)p.r(G)p.[lna](T)p.r(C)p.[lna](G)p.[lna](C)}$$$RNA1{StrandType:ss}|RNA2{StrandType:as}$: 0
- RNA1{r(A)p.r(A)p.r(A)p.r(C)p.r(A)p.r(U)p.r(G)p.r(C)p.r(A)p.r(G)p.r(A)p.r(A)p.r(A)p.r(A)p.r(U)p.r(G)p.r(C)p.r(U)p.r(G)p.r(T)p.r(T)}|RNA2{[s4r](C)p.[s4r](A)p.r(G)p.r(C)p.r(A)p.r(U)p.r(U)p.r(U)p.r(U)p.r(C)p.r(U)p.r(G)p.r(C)p.r(A)p.r(U)p.r(G)p.r(U)p.[s4r](U)p.[s4r](U)p.r(T)p.r(T)}$$$RNA1{StrandType:ss}|RNA2{StrandType:as}$: 42.5

Item `RNA1{r(C)p.r(C)p.r(U)p.r(C)p.r(C)p.r(C)p.m(C)p.r(A)p.r(U)p.r(C)p.r(C)p.r(C)p.r(C)p.r(U)p.r(U)p.r(U)p.m(U)p.r(A)p.r(A)p.r(T)p.r(T)}|RNA2{r(U)p.r(U)p.m(A)p.r(A)p.r(A)p.r(A)p.r(G)p.r(G)p.r(G)p.r(G)p.r(A)p.m(U)p.r(G)p.r(G)p.r(G)p.r(G)p.r(A)p.r(G)p.r(G)p.r(T)p.r(T)}$$$RNA1{StrandType:ss}|RNA2{StrandType:as}$` : provide target mRNA knockdown 80
